Reference source: patent US20100190832A1

# pKd annotations
target: TTR (Homo sapiens, UniProt P02766); construct: made in house; test: Dissociation constant by fluorescence titration (Adair equation, two sites); assay type: binding; details: pH 4.4; read-out: Dissociation Constant Kd1
Value format note: pKd is -log10 of concentration (mol/L); just state the number.

See these solved cases before continuing.
[[record]]
compound = "O=C(O)c1ccc(Oc2ccc(Cl)cc2Cl)c(O)c1 [Compound 7]"
value_type = "pKd"
result_value = 7.57

[[record]]
compound = "O=C(Nc1nnc[nH]1)c1c(Cl)ccc(Cl)c1Cl [Compound 12]"
value_type = "pKd"
result_value = 6.92

[[record]]
compound = "O=Cc1ccc(Oc2ccc(Cl)cc2Cl)c(O)c1 [Compound 2]"
value_type = "pKd"
result_value = 7.86

[[record]]
compound = "OCc1ccc(Oc2ccc(Cl)cc2Cl)c(O)c1 [Compound 4]"
value_type = "pKd"
result_value = 9.52

[[record]]
compound = "COc1cc(C=O)ccc1Oc1ccccc1 [Compound 9]"
value_type = "pKd"
result_value = 7.06


Now consider a different compound.
Asked: Item Oc1ccccc1-c1nnc(S)o1 [Compound 11] has what recorded pKd?
Given back: 7.38

----------
remaining activity at 21.6 µM overview
biological target: WT-TTR (Homo sapiens, UniProt P02766); construct: made in house; assay: Stagnant acid-mediated TTR aggregation (fibril formation) assay, turbidity at 340 nm; type: biochemical; conditions: 72 h, pH 4.4, TTR 7.2 μM, inhibitor 21.6 μM (1:3), pH 4.4, 37° C.; no inhibitor = 100%; read-out: % FF 1:3
Enter your answer as a number in %; do not include the unit.

Example compounds with recorded remaining activity at 21.6 µM:
[[record]]
compound = "O=C(Nc1nnc[nH]1)c1c(Cl)ccc(Cl)c1Cl"
value_type = "remaining activity at 21.6 µM"
unit_tag = "%"
result_value = 3.6

[[record]]
compound = "COc1cc(C=O)ccc1Oc1ccccc1"
value_type = "remaining activity at 21.6 µM"
unit_tag = "%"
result_value = 0


Asked: // lookup remaining activity at 21.6 µM | system=WT-TTR (Homo sapiens, UniProt P02766) | key= OCc1ccc(Oc2ccc(Cl)cc2Cl)c(O)c1
Given back: 2.6

Asked: Quick check: remaining activity at 21.6 µM on WT-TTR (Homo sapiens, UniProt P02766), item O=C(O)c1ccc(Oc2ccc(Cl)cc2Cl)c(O)c1 ?
Given back: 13.3

Asked: Entry Oc1ccccc1-c1nnc(S)o1 , system WT-TTR (Homo sapiens, UniProt P02766): what remaining activity at 21.6 µM was measured?
Given back: 0

Asked: What is its remaining activity at 21.6 µM for WT-TTR (Homo sapiens, UniProt P02766)? Entry: COc1cc(CCl)ccc1Oc1ccccc1 [Compound 8, 3-Methoxy-4-phenoxybenzyl chloride]
Given back: 0

Asked: Please state recorded remaining activity at 21.6 µM (tested on WT-TTR (Homo sapiens, UniProt P02766)) of COc1cc(C(=O)O)ccc1Oc1ccc(Cl)cc1Cl
Given back: 0

Asked: Please tell me: remaining activity at 21.6 µM of COc1cc(CCl)ccc1Oc1ccc(Cl)cc1Cl , system WT-TTR (Homo sapiens, UniProt P02766)?
Given back: 0

----------
target: WT-TTR (Homo sapiens); construct: made in house; experiment: Stagnant acid-mediated TTR aggregation (fibril formation) assay, turbidity at 340 nm; type: biochemical; conditions: 72 h, pH 4.4, compound 100 μM, WT-TTR 7.2 μM, pH 4.4, 37° C.; read-out: % FF
The reader will find reported remaining activity at 100 µM values listed item by item below.
State just the number; it will be interpreted in %.

Example entries begin here.
[[record]]
molecule = "O=C(O)C1CSC(c2ccc(Cl)cc2)N1 (stereo not drawn)"
system = "WT-TTR (Homo sapiens)"
result_value = 142

[[record]]
molecule = "O=C(NC(c1ccco1)c1cc(Cl)c2cccnc2c1O)c1cccnc1 (stereo not drawn)"
system = "WT-TTR (Homo sapiens)"
result_value = 36.7

[[record]]
molecule = "Nc1nc(Cl)cc(Oc2ccccc2F)n1"
system = "WT-TTR (Homo sapiens)"
result_value = 52.4

[[record]]
molecule = "O=C(c1cc(-c2ccc(Cl)s2)nc2ccccc12)N1CCOCC1"
system = "WT-TTR (Homo sapiens)"
result_value = 156


Asked: Data request, read-out remaining activity at 100 µM, for Oc1ccc(-c2nnc(S)o2)cc1
Given back: 19.2

Asked: Any idea what its remaining activity at 100 µM is? The molecule is COc1cc(C2NC(C(=O)O)CS2)ccc1O (stereo not drawn)
Given back: 116
